target: INDY (Homo sapiens, UniProt Q86YT5); experiment: 14C-citrate uptake in HEK293 cells overexpressing recombinant human INDY (NaCT); format: cell-based; design: expressed in transfected cells; host or cells: HEK293
Sequence (Q86YT5 whole entry): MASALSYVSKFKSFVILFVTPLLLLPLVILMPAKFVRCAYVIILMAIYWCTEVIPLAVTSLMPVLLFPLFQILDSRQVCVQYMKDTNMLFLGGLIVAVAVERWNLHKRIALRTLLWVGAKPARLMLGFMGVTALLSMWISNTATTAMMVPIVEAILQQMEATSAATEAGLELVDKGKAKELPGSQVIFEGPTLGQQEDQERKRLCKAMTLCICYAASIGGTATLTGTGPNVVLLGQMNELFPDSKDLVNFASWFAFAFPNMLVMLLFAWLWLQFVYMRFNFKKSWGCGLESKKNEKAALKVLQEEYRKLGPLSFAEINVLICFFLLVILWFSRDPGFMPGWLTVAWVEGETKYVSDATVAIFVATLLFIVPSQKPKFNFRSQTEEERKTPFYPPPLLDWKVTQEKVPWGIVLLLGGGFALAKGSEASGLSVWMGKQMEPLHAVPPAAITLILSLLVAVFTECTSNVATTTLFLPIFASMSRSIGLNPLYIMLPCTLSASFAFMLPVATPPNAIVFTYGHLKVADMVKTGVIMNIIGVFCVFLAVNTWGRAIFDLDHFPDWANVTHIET
quantityName: IC50

Solved cases (2 shown):
CN(C)c1ccc(S(=O)(=O)N2CCC(C(=O)NCc3ccccn3)CC2)cc1 [Example 64] :: > 20 µM
CC(C)(C)c1ccccc1S(=O)(=O)N1CCC(C(=O)NCc2ccccc2F)CC1 [Example 42] :: > 20 µM

Lab note: next compound to report on.
For the record O=C(NCc1ccc(F)cc1)C1CCN(S(=O)(=O)/C=C/c2ccccc2)CC1 [Example 56] , what value of IC50 is listed for INDY (Homo sapiens, UniProt Q86YT5)?
> 20 µM

###

molecular target: INDY (Homo sapiens); assay: 14C-citrate uptake in HEK293 cells overexpressing recombinant human INDY (NaCT); type: cell-based; parameters: expressed in transfected cells; host or cells: HEK293
quantityName: IC50

Solved cases (6 shown):
O=C(NCc1ccccc1N1CCOCC1)C1CCN(S(=O)(=O)/C=C/c2ccccc2)CC1 [Example 40] :: > 20 µM
O=C(NCc1ccccn1)C1CCN(S(=O)(=O)c2ccc(N3CCCC3)cc2)CC1 [Example 70] :: > 20 µM
O=C(NCc1ccccc1F)C1CCN(S(=O)(=O)c2ccc(CO)cc2)CC1 [Example 100] :: > 20 µM
O=C(O)c1cccc(CNC(=O)C2CCN(S(=O)(=O)c3cc(Cl)cc(Cl)c3)CC2)c1 [Example 119] :: > 20 µM
COc1ccccc1CNC(=O)C1CCN(S(=O)(=O)/C=C/c2ccccc2)CC1 [Example 15] :: 2.9 µM
O=C(NCc1ccccn1)C1CCN(S(=O)(=O)c2ccc(C3CC3)cc2)CC1 [Example 97] :: 9.2 µM

GET /values?readout=IC50&item= O=C(NCc1ccccn1)C1CCN(S(=O)(=O)c2c(Cl)cccc2Cl)CC1 [Example 63]
> 20 µM

GET /values?readout=IC50&item= O=C(NCc1ccccn1)C1CCN(S(=O)(=O)c2cccc([N+](=O)[O-])c2)CC1 [Example 76]
> 20 µM

GET /values?readout=IC50&item= COC(=O)c1ccccc1CNC(=O)C1CCN(S(=O)(=O)/C=C/c2ccccc2)CC1 [Example 66]
12.9 µM

GET /values?readout=IC50&item= COC(=O)c1cccc(S(=O)(=O)N2CCC(C(=O)NCc3ccccc3F)CC2)c1 [Example 88]
> 20 µM

GET /values?readout=IC50&item= CN(C)c1ccc(S(=O)(=O)N2CCC(C(=O)NCc3ccccc3F)CC2)cc1 [Example 65]
> 20 µM

GET /values?readout=IC50&item= CC(O)c1cccc(S(=O)(=O)N2CCC(C(=O)NCc3ccccc3F)CC2)c1 (stereo not drawn) [Example 107]
13.2 µM

###

target: INDY (Homo sapiens, UniProt Q86YT5); test: 14C-citrate uptake in HepG2 cells endogenously expressing INDY (NaCT); format: cell-based; settings: endogenous INDY
# reported IC50; entries follow
Give a bare numeral; the unit µM is implied.

Solved cases (5 shown):
O=C(NCc1ccccc1O)C1CCN(S(=O)(=O)/C=C/c2ccccc2)CC1 :: 3.2
O=C(NCc1ccccn1)C1CCN(S(=O)(=O)c2ccc(S(F)(F)(F)(F)F)cc2)CC1 :: 0.4
O=C(NCc1ccccn1)C1CCN(S(=O)(=O)c2ccc(C3CCCC3)cc2)CC1 :: 7.4
O=C(NCc1ccccc1F)C1CCN(S(=O)(=O)c2ccc3c(c2)OCO3)CC1 :: 15.9
O=C(NCc1ccccn1)C1CCN(S(=O)(=O)c2ccc(Cl)c(Cl)c2)CC1 :: 7.2

For the record O=C(NCc1ccccn1)C1CCN(S(=O)(=O)c2ccc(OC(F)(F)F)cc2)CC1 , what value of IC50 is listed for INDY (Homo sapiens, UniProt Q86YT5)?
2.7

For the record O=C(NCc1ccccc1F)C1CCN(S(=O)(=O)c2ccc(Cl)c(Cl)c2)CC1 , what value of IC50 is listed for INDY (Homo sapiens, UniProt Q86YT5)?
15.7

###

molecular target: UniProtKB Q86YT5; assay: 14C-citrate uptake in HEK293 cells overexpressing recombinant human INDY (NaCT); type: cell-based; design: expressed in transfected cells; host or cells: HEK293
pIC50: −log10 of the molar value.
# reported pIC50; entries follow

Solved cases (2 shown):
O=C(O)c1ccc(S(=O)(=O)N2CCC(C(=O)NCc3ccccc3F)CC2)cc1 :: < 4.70
NC(=O)c1ccc(S(=O)(=O)N2CCC(C(=O)NCc3ccccc3F)CC2)cc1 :: < 4.70

GET /values?readout=pIC50&item= CCCNC(C)c1cccc(S(=O)(=O)N2CCC(C(=O)NCc3ccccc3F)CC2)c1 (stereo not shown)
< 4.70

GET /values?readout=pIC50&item= O=C(NCc1ccccn1)C1CCN(S(=O)(=O)c2cccc(Cl)c2Cl)CC1
< 4.70

GET /values?readout=pIC50&item= CC(=O)Nc1ccc(S(=O)(=O)N2CCC(C(=O)NCc3ccccc3F)CC2)cc1
< 4.70

###

molecular target: UniProt Q86YT5; test: 14C-citrate uptake in HepG2 cells endogenously expressing INDY (NaCT); assay type: cell-based; conditions: endogenous INDY
pIC50: −log10 of the molar value.
# reported pIC50; entries follow

Solved cases (3 shown):
O=C(NCc1cc(F)ccc1F)C1CCN(S(=O)(=O)/C=C/c2ccccc2)CC1 :: < 4.70
O=C(NCc1ccccc1F)C1CCN(S(=O)(=O)C2=Cc3ccccc3OC2)CC1 :: < 4.30
CN(Cc1ccccc1F)C(=O)C1CCN(S(=O)(=O)/C=C/c2ccccc2)CC1 :: < 4.30

GET /values?readout=pIC50&item= COC(=O)c1cccc(CNC(=O)C2CCN(S(=O)(=O)c3cc(Cl)cc(Cl)c3)CC2)c1
5.40

###

target: INDY (Homo sapiens); experiment: 14C-citrate uptake in HEK293 cells overexpressing recombinant human INDY (NaCT); type: cell-based; design: expressed in transfected cells; host or cells: HEK293
quantityName: IC50 (µM)
Give a bare numeral; the unit µM is implied.

Solved cases (3 shown):
CC(C)(C)c1ccc(S(=O)(=O)N2CC(C(=O)NCc3ccccn3)C2)cc1 :: 14.4
CC(C)(C)c1ccc(S(=O)(=O)N2CC(C(=O)NCc3ccccc3F)C2)cc1 :: 9.3
CC(C)c1ccc(S(=O)(=O)N2CCC(C(=O)NCc3ccccn3)CC2)cc1 :: 2.7

Lab note: next compound to report on.
For the record O=C(NCc1ccccc1F)C1CCN(S(=O)(=O)c2ccc(I)cc2)CC1 , what value of IC50 is listed for INDY (Homo sapiens)?
1
